Assay: Compound was evaluated for the pKa value in water at 20 degrees Centigrade
Assay type: physicochemical

compound	pKa
c1ccc2cnccc2c1 [ISOQUINOLINE]	5.4

* * *

Test system: Plasmodium falciparum
Experiment: In vitro antimalarial activity against chloroquine-sensitive Plasmodium falciparum D6 (CDC/Sierra Leone I)
Format: functional, organism-based
With a cut-off of 1000 nM, any IC50 strictly below it is called 1; any IC50 meeting it or above is called 0.

smiles text	class assignment
COc1ccc(C(=O)/C=C/c2ccc(F)cc2F)c(OC)c1	0
COc1ccc(OC)c(C(=O)/C=C\c2ccc(Cl)cc2Cl)c1	1
COc1ccc(C(=O)/C=C/c2ccc(F)c(F)c2)c(OC)c1	0
COc1cccc(OC)c1C(=O)/C=C\c1ccc(Cl)cc1	0
O=C(/C=C\c1ccnc2ccccc12)c1cc(Cl)ccc1Cl	1
COc1ccc(C(=O)/C=C/c2cc3ccccc3nc2Cl)cc1OC	1
COc1ccc(C(=O)/C=C/c2ccc(Cl)cc2Cl)c(OC)c1	1
COc1ccc(C(=O)/C=C/c2cccc(Cl)c2Cl)cc1OC	0
COc1ccc(C(=O)/C=C/c2ccc(C(F)(F)F)cc2)c(OC)c1	1
COc1ccc(C(=O)/C=C/c2cccc(Cl)c2Cl)c(OC)c1	0
COc1ccc(C(=O)CCc2ccc(F)c(F)c2)c(OC)c1	0
COc1ccc(/C=C(\C)C(=O)c2ccc(Cl)cc2Cl)c(OC)c1	0
COc1ccc(C(=O)/C(C)=C/c2ccc(Cl)cc2Cl)c(OC)c1	0
COc1ccc(C(=O)CCc2ccc(Cl)cc2Cl)c(OC)c1	0
COc1ccc(OC)c(C(=O)/C=C/c2cccc(Cl)c2Cl)c1	0
COc1ccc(/C=C/C(=O)c2ccc(F)cc2F)c(OC)c1	0
O=C(/C=C/c1cc2ccccc2nc1Cl)c1cccnc1	0
O=C(/C=C\c1ccnc2ccccc12)c1ccc(Cl)c(Cl)c1	0
